Reference source for all entries: the supplement of paper PMC7877785

- methodSummary: self-splicing fitness, log relative to wild type (ln ratio); higher = more splicing; Tetrahymena group I intron in knt gene, E. coli kanamycin selection, DiMSum; sequences stand for … in CUCUCU…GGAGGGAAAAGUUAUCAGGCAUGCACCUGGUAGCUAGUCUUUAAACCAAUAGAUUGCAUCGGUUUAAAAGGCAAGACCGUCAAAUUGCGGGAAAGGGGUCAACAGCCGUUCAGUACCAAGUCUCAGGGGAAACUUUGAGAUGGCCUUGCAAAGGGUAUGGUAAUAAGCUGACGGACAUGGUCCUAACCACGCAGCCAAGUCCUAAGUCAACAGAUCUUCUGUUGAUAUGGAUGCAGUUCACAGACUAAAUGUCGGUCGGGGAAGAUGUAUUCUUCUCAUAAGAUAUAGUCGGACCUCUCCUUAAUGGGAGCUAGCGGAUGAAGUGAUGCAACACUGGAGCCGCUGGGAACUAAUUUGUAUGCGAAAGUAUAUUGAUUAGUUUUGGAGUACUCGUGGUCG;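 also: selection with 25 µg/mL kanamycin versus none on LB agar overnight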
- measurementParameters: 37 °C
Kindly state self-splicing fitness (ln) for each of the entries shown.

q: Return reported self-splicing fitness (ln); argument: `AAGUAGCAAUAUUACGUCGU`
a: -0.724

q: Tell me the measured self-splicing fitness (ln) of `GGUGAGCAAUAUUACGGACA` , please.
a: -0.688

q: Requested field: self-splicing fitness (ln). Item: `UAUAAGCAAUAUUACGUGAA`
a: -0.933

q: Which value of self-splicing fitness (ln) has been reported for `UGGGAGCAAUAUUACGUCUC` in the records?
a: -2.93

q: Need self-splicing fitness (ln), item `AAGUAGCAAUAUUACGUUGC`
a: -3.19

q: Look at this sequence and give its reported self-splicing fitness (ln). `ACCAAGCAAUAUUACGUUUA`
a: -1.82

q: Fill blank: measured self-splicing fitness (ln) of the sequence `CCUCAGCAAUAUUACGUUGA` is ____.
a: -2.28

q: What value of self-splicing fitness (ln) has been reported for the following sequence? `CCCCAGCAAUAUUACGUACC`
a: -3.36

q: Looking for the measured self-splicing fitness (ln) of `AAGUAGCAAUAUUACGGAUG` , can you help?
a: -1.76

q: Reported self-splicing fitness (ln) for `AGCUAGCAAUAUUACGAGUA` : what is it?
a: -0.618

q: Would you kindly share the measured self-splicing fitness (ln) for `AUGAAGCAAUAUUACGGACG` ?
a: 0.536

q: Fill blank: measured self-splicing fitness (ln) of the sequence `GCUAAGCAAUAUUACGACAC` is ____.
a: 0.369

q: Which measured self-splicing fitness (ln) value corresponds to `AGAAAGCAAUAUUACGGCUC` ?
a: -0.338

q: Name the reported self-splicing fitness (ln) value associated with the sequence `UUACAGCAAUAUUACGGCAC`
a: -2.26

q: May I ask what self-splicing fitness (ln) has been recorded for `GAUUAGCAAUAUUACGCUGC` ?
a: -2.25

q: Name the recorded self-splicing fitness (ln) for `GAGAAGCAAUAUUACGUCGU` .
a: -0.855

q: Entry under review: `UCCUAGCAAUAUUACGCCUU` . Reported self-splicing fitness (ln)?
a: -2.34

q: Data request, read-out self-splicing fitness (ln), for `UCCAAGCAAUAUUACGCAUC`
a: -2.93

q: Need self-splicing fitness (ln), item `UGUAAGCAAUAUUACGGCAC`
a: -1.48

q: Requested read-out: self-splicing fitness (ln). Entry: `UUGAAGCAAUAUUACGCGUG`
a: -0.123

q: Find the recorded self-splicing fitness (ln) belonging to `CCCUAGCAAUAUUACGUCAA` and report it.
a: -3.46

q: Please report the recorded self-splicing fitness (ln) for `CCGCAGCAAUAUUACGGGAG` .
a: -3.06

q: Report self-splicing fitness (ln) for `GCAAAGCAAUAUUACGACCC` please.
a: -0.0707

q: Dear colleague, I am looking for the recorded self-splicing fitness (ln) of the following sequence: `CCCGAGCAAUAUUACGACAU`
a: -2.88

q: // self-splicing fitness (ln) lookup, key: `CCAGAGCAAUAUUACGAAUU`
a: -3.11

q: Look at this sequence and give its reported self-splicing fitness (ln). `GGUAAGCAAUAUUACGUCGA`
a: -0.708

q: Could you tell me which self-splicing fitness (ln) is on file for `CCAGAGCAAUAUUACGUGAA` ?
a: -2.32

q: What does the data say about its self-splicing fitness (ln)? Entry: `CCGCAGCAAUAUUACGGUUC`
a: -3.67

q: Request the reported self-splicing fitness (ln) associated with `CAGAAGCAAUAUUACGGCAG`
a: 0.33

q: For the sequence `CGUCAGCAAUAUUACGUCAC` , what self-splicing fitness (ln) is on record?
a: -1.42

q: State the recorded self-splicing fitness (ln) for this entry: `AAUGAGCAAUAUUACGGAGU`
a: -0.994

q: Could you tell me which self-splicing fitness (ln) is on file for `ACUCAGCAAUAUUACGCGUA` ?
a: -0.395

q: What value of self-splicing fitness (ln) has been reported for the following sequence? `UCAAAGCAAUAUUACGACCC`
a: -2.34

q: Fill blank: measured self-splicing fitness (ln) of the sequence `UCAAAGCAAUAUUACGGCCC` is ____.
a: -2.18
